Data origin, for the record: paper PMC12356538

# Tested on: SL1 RNA
# assay: RNA-detected NMR binding site mapping (2D-1H,1H-TOCSY and 1D-1H)
# Parameters: species or system SARS-CoV-2
# setup.conditions: 2D TOCSY; RNA 150 μM, compound 1 mM, 298 K
// no strictly below 0.008 ppm in 1H,1H CSPs [ppm] C16H5-H6; yes otherwise

smiles.structure | test.target | cat
CNC(=N)Nc1nc2ccc(OC)cc2s1 | SL1 RNA | yes
COc1ccc2nc(NC(=O)CN(C)C)sc2c1 | SL1 RNA | yes

Please indicate if the recorded 1H,1H CSPs [ppm] C16H5-H6 for CNC(=O)Nc1nc2c(O)cc(O)cc2s1 meets or exceeds 0.008 ppm. no

API: above_or_equal(metric=1H,1H CSPs [ppm] C16H5-H6, cutoff=0.008 ppm) for item COc1ccc2nc(NC(=O)CN3CCC[C@H](N)C3)sc2c1 no

---

T2 reduction [%]: recorded values
# System: SARS-CoV-2 SL1 RNA (SL1 wt)
# Format: binding
# setup.conditions: CPMG 100 vs 5 ms; 10 μM SL1 wt, 200 μM ligand, pH 6.2
Write your answer as a measured quantity: the number, then the unit.

Some solved cases for reference:
smiles.structure | test.target | T2 reduction [%]
COc1cc(OC)c2nc(NC(=O)CN3CCN(C)CC3)sc2c1 | SARS-CoV-2 SL1 RNA (SL1 wt) | 100.00%
COc1cc(OC)c2nc(NC(=O)CN3CCC[C@H](N)C3)sc2c1 | SARS-CoV-2 SL1 RNA (SL1 wt) | 100.00%
CNC(=O)Nc1nc2c(O)cc(O)cc2s1 | SARS-CoV-2 SL1 RNA (SL1 wt) | 100.00%
CN(C)CC(=O)Nc1nnc(-c2ccc([N+](=O)[O-])cc2)s1 | SARS-CoV-2 SL1 RNA (SL1 wt) | 86.63%
CN(C)CC(=O)Nc1nc2ccc([N+](=O)[O-])cc2s1 | SARS-CoV-2 SL1 RNA (SL1 wt) | 100.00%
COc1ccc2nc(NC(=O)CN3CCNCC3)sc2c1 | SARS-CoV-2 SL1 RNA (SL1 wt) | 86.71%
COc1ccc2nc(NC(=O)CN(C)C)sc2n1 | SARS-CoV-2 SL1 RNA (SL1 wt) | 73.62%
COc1cc(OC)c2nc(NC(=O)CN3CCNCC3)sc2c1 | SARS-CoV-2 SL1 RNA (SL1 wt) | 100.00%
COc1ccc2nc(NC(=O)CN3CCN(C)CC3)[nH]c2c1 | SARS-CoV-2 SL1 RNA (SL1 wt) | 41.23%
COc1ccc2nc(NC(=O)CN3CCC[C@H](N)C3)sc2c1 | SARS-CoV-2 SL1 RNA (SL1 wt) | 100.00%

Lab note: need T2 reduction [%] with SARS-CoV-2 SL1 RNA (SL1 wt) for entry COc1cc(OC)c2nc(NC(=O)CN(C)C)sc2c1 , please look it up. 36.00%

Param readout= T2 reduction [%]; system= SARS-CoV-2 SL1 RNA (SL1 wt); entry= CNC(=O)Nc1nc2ccc(OC)cc2s1 ; returns value. 66.95%

Look up T2 reduction [%] with SARS-CoV-2 SL1 RNA (SL1 wt) for this compound: CNC(=O)Nc1nc2c(OC)cc(OC)cc2s1 93.00%

What value of T2 reduction [%] on SARS-CoV-2 SL1 RNA (SL1 wt) does COc1ccc2nc(NC(=O)CN3CCC[C@@H](N)C3)sc2c1 have? 100.00%

What measured T2 reduction [%] is associated with COc1ccc(-c2nnc(NC(=O)CN(C)C)s2)cc1 on SARS-CoV-2 SL1 RNA (SL1 wt)? 95.00%

So what T2 reduction [%] did COc1ccc2nc(NC(=O)CN3CCN(C)CC3)sc2c1 get with SARS-CoV-2 SL1 RNA (SL1 wt)? 91.00%

Query the reported T2 reduction [%] for SARS-CoV-2 SL1 RNA (SL1 wt); item: COc1ccc2nc(NC(=O)CN3CCC[C@H](NCCN(C)c4cccc(O)c4)C3)sc2c1 74.30%

Hi! What's the reported T2 reduction [%] for CN(C)CC(=O)Nc1nc2ccc(OC(F)(F)F)cc2s1 on SARS-CoV-2 SL1 RNA (SL1 wt)? 85.67%

Write down the reported T2 reduction [%] of CNC(=N)Nc1nc2ccc(O)cc2s1 , test system: SARS-CoV-2 SL1 RNA (SL1 wt). 72.21%

Recorded T2 reduction [%] for COc1ccc(-c2nnc(NC(=O)CN3CCC[C@@H](N)C3)s2)cc1OC with SARS-CoV-2 SL1 RNA (SL1 wt), please? 98.00%
